Test system: phosphorylation of AKT on Ser473 (PI3K pathway) in SKBR3 (PIK3CA WT) cell line
procedure-summary: PI3K pathway activation assay (pAKT Ser473 HTRF), SKBR3 cells
Type: cell-based
condition-notes: Homo sapiens, SK-BR-3, 2 h, two hours of treatment
metric: IC50

Reference set, count: 3
{"compound": "Cc1cc([C@@H](C)Nc2ccc(Cl)nc2C(=O)O)nc(N2C(=O)N(C)C[C@@H]2Cc2ccccc2)c1 [Example 60]", "target-of-assay": "phosphorylation of AKT on Ser473 (PI3K pathway) in SKBR3 (PIK3CA WT) cell line", "endpoint-result": "1 to 10 µM"}
{"compound": "Cc1cc([C@@H](C)Nc2ccc(Cl)nc2C(=O)O)nc(N2C(=O)OC[C@@H]2Cc2ccc(F)cc2)c1 [Example 24]", "target-of-assay": "phosphorylation of AKT on Ser473 (PI3K pathway) in SKBR3 (PIK3CA WT) cell line", "endpoint-result": "> 10 µM"}
{"compound": "Cc1cc([C@@H](C)Nc2ccc(Cl)nc2C(=O)O)nc(N2C(=O)N(C)C[C@@H]2Cc2ccc(F)cc2F)c1 [Example 59]", "target-of-assay": "phosphorylation of AKT on Ser473 (PI3K pathway) in SKBR3 (PIK3CA WT) cell line", "endpoint-result": "> 10 µM"}

Now for another entry.
Challenge: State measured IC50 of the compound C[C@@H](Nc1ccc(Cl)nc1C(=O)O)c1cc(F)cc(N2C(=O)OC[C@@H]2Cc2ccccc2F)c1 [Example 61] with phosphorylation of AKT on Ser473 (PI3K pathway) in SKBR3 (PIK3CA WT) cell line.
Response given: 1 to 10 µM

----------
Tested on: phosphorylation of AKT on Ser473 (PI3K pathway) in SKBR3 (PIK3CA WT) cell line
procedure-summary: PI3K pathway activation assay (pAKT Ser473 HTRF), SKBR3 cells
Assay type: cell-based
condition-notes: Homo sapiens, SK-BR-3, 2 h, two hours of treatment
metric: IC50

Reference set (8 entries):
{"molecule": "Cc1cc([C@@H](C)Nc2ccc(Cl)nc2C(=O)O)nc(N2C(=O)OC[C@@H]2Cc2cccc(C#N)c2)c1", "target-of-assay": "phosphorylation of AKT on Ser473 (PI3K pathway) in SKBR3 (PIK3CA WT) cell line", "IC50": "> 10 µM"}
{"molecule": "Cc1cc([C@@H](C)Nc2ccc(Cl)nc2C(=O)O)nc(N2C(=O)OC[C@@H]2Cc2ccc(C#N)cc2F)c1", "target-of-assay": "phosphorylation of AKT on Ser473 (PI3K pathway) in SKBR3 (PIK3CA WT) cell line", "IC50": "> 10 µM"}
{"molecule": "Cc1cc([C@@H](C)Nc2ccc(Cl)nc2C(=O)O)nc(N2C(=O)OC[C@@H]2Cc2ccncc2F)c1", "target-of-assay": "phosphorylation of AKT on Ser473 (PI3K pathway) in SKBR3 (PIK3CA WT) cell line", "IC50": "1 to 10 µM"}
{"molecule": "COc1ccc(C[C@H]2COC(=O)N2c2cc(C)cc([C@@H](C)Nc3ccc(Cl)nc3C(=O)O)n2)c(F)c1", "target-of-assay": "phosphorylation of AKT on Ser473 (PI3K pathway) in SKBR3 (PIK3CA WT) cell line", "IC50": "> 10 µM"}
{"molecule": "Cc1cc([C@@H](C)Nc2ccc(Cl)nc2C(=O)O)nc(N2C(=O)OC[C@@H]2Cc2ccc(F)cc2F)c1", "target-of-assay": "phosphorylation of AKT on Ser473 (PI3K pathway) in SKBR3 (PIK3CA WT) cell line", "IC50": "> 10 µM"}
{"molecule": "Cc1cc(C(C)Nc2ccc(F)nc2C(=O)O)nc(N2C(=O)OC[C@@H]2Cc2ccccc2)c1 (single isomer, unassigned)", "target-of-assay": "phosphorylation of AKT on Ser473 (PI3K pathway) in SKBR3 (PIK3CA WT) cell line", "IC50": "> 10 µM"}
{"molecule": "Cc1cc([C@@H](C)Nc2ccc(Cl)nc2C(=O)O)nc(N2C(=O)OC[C@@H]2Cc2ccc(C(F)(F)F)cc2)c1", "target-of-assay": "phosphorylation of AKT on Ser473 (PI3K pathway) in SKBR3 (PIK3CA WT) cell line", "IC50": "> 10 µM"}
{"molecule": "Cc1cc(C(C)Nc2ccc(Cl)nc2C(=O)O)nc(N2C(=O)OC[C@@H]2Cc2ccccc2)c1 (single isomer, unassigned)", "target-of-assay": "phosphorylation of AKT on Ser473 (PI3K pathway) in SKBR3 (PIK3CA WT) cell line", "IC50": "1 to 10 µM"}

Challenge: Write IC50 of Cc1cc([C@@H](C)Nc2ccc(Cl)nc2C(=O)O)nc(N2C(=O)OC[C@@H]2Cc2cccc(C)c2F)c1 ; system used: phosphorylation of AKT on Ser473 (PI3K pathway) in SKBR3 (PIK3CA WT) cell line
Response given: > 10 µM

Challenge: Give phosphorylation of AKT on Ser473 (PI3K pathway) in SKBR3 (PIK3CA WT) cell line IC50 for the following molecule: Cc1cc([C@@H](C)Nc2ccc(Cl)nc2C(=O)O)nc(N2C(=O)N(C)C[C@@H]2Cc2ccc(F)cc2)c1
Response given: > 10 µM
